- tgt: Macrophage metalloelastase (Homo sapiens, UniProt P39900)
- Sequence (P39900 whole entry): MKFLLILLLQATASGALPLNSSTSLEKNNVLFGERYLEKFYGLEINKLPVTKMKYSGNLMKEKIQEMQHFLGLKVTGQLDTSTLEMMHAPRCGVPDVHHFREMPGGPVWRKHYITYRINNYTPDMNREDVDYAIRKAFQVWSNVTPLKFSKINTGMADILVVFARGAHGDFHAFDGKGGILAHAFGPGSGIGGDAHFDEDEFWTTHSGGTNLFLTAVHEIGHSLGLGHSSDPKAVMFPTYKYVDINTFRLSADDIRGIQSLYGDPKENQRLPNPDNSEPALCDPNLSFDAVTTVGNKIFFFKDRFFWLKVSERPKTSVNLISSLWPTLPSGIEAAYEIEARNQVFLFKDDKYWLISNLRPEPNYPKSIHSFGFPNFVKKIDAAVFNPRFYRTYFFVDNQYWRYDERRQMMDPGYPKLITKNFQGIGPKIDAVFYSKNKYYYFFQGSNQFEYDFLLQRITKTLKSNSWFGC
pKi: −log10 of the molar value.
reported-metric: pKi

In [3]: df
Out[3]:
   molecular_string  measurement
0     Oc1cccc(O)c1O         5.69

Origin of the recorded values: BindingDB's records for PubMed 36250680
